Assayed system: FGFR3 (UniProt P22607)
Sequence (P22607 whole entry, looked up): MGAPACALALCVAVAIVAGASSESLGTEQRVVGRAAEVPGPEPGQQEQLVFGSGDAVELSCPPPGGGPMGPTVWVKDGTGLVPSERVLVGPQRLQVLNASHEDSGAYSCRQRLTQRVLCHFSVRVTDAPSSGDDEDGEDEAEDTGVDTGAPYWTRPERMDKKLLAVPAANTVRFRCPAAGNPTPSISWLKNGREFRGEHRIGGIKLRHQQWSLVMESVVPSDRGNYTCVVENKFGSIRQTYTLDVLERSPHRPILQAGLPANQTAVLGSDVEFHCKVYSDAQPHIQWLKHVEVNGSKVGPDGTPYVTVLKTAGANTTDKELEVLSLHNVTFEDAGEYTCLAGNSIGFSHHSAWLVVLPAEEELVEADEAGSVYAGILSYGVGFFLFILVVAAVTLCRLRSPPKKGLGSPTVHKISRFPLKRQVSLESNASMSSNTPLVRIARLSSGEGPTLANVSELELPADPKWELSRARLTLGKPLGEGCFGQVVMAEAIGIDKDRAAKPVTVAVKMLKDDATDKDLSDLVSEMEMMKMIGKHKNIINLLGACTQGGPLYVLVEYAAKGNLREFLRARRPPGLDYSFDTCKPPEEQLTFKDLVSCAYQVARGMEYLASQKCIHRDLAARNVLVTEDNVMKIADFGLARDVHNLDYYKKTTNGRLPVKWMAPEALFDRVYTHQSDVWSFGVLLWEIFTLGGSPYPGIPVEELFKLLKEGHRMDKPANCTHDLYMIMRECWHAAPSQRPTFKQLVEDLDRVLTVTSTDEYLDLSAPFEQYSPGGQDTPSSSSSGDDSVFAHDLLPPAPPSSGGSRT
Experimental protocol: phosphorylation enrichment, bacterial display (enrichment ratio); higher = better substrate or ligand; peptides without Tyr show the background;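 also: 11-residue human phosphosite peptides and single-mutation variants displayed on the E. coli surface, counted by deep sequencing, each peptide's frequency after selection divided by its frequency in the unselected input library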;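 also: frequency after pTyr selection over input frequency; kinase dosed for 20-30% of maximal phosphorylation in three min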
Recorded phosphorylation enrichment, one value per entry.
Measured parameter: phosphorylation enrichment

{"columns": ["Seq string", "Experimental result"],
 "data": [
  ["IGMLIYFARKA [VCAM1_Y718_I716L]", 0.456],
  ["TQKLAYVELQQ [CENPF_Y700_M701V]", 0.643],
  ["RLLRGYRQDAY [HLA-A_Y137_F133L]", 0.519],
  ["HGVSSYDTVIS [LDLR_Y465]", 0.706],
  ["RGFRQDAFDGK [HLA-A_Y140_YF]", 0.73],
  ["NTADFYDLFGG [PTPN11_Y63_G60A_YF]", 0.608],
  ["TFAVSYLPDMS [FLNC_Y1602_T1599A_YF]", 0.816],
  ["ARRHPYFFAPE [ALB_Y172_Y174F]", 1.86],
  ["LNPVVYTLRNA [OR4C12_Y285]", 0.69],
  ["SVTSTYSPALN [TP53_Y126_C124S]", 0.398],
  ["RFLRGYRQHAY [HLA-A_Y137_D140H]", 0.849],
  ["PSAVAYPKRSQ [MARK3_Y432_V429A]", 0.545],
  ["DKANRYFSPNF [PTEN_Y336]", 0.461],
  ["AVVEPYNSLLT [TUBA1A_Y185_I188L]", 0.54],
  ["QGLRLYRSHLA [BTK_Y617_P619S]", 0.5],
  ["ASIVDYNIIGW [MYH7_Y588_G584S]", 0.865],
  ["KLQQWYREPRS [GPI_Y17_H20P]", 0.491],
  ["LEDEVYAQKMK [TPM2_Y261]", 1.97],
  ["PSQRRNVFFFS [PTEN_Y174_Y174N_YF]", 0.777],
  ["ATPKGYEPDAS [OTC_Y223]", 0.59],
  ["GLETSYIEDNC [PAH_Y24_Q20L]", 0.564],
  ["VTRLWYPVCFG [ITK_Y336_R335W]", 1.36],
  ["TESALYGCTIL [MAP3K21_Y724_V728I]", 1.19],
  ["INVTIYGKTFR [EFHC1_Y177_I174V]", 0.756],
  ["MTYVFYRENLR [NLRP14_Y443]", 0.967],
  ["ALRASYTPSPA [ESS2_Y418]", 0.389],
  ["MKGDYYCYLAE [YWHAG_Y131_R132C]", 9.01],
  ["EWKQNYEESQS [MYH7_Y1460_K1459N]", 0.692],
  ["FHLLPYTVRAM [PARS2_Y93_YF]", 0.551]
]}
